Attribution: PubChem BioAssay (NCATS)

- protocol.text: P-glycoprotein substrates identified in KB-8-5-11 adenocarcinoma cell line, qHTS therapeutic library screen (AID 1346987); note: nearly all actives have a fitted effect of over 65% in size
- run.parameters: KB-8-5-11 (P-gp overexpressing) viability, CellTiter-Glo, 72 h; series mostly up to 44.5 µM
Results filed as inconclusive are left out. The source made the active and inactive calls. Calls come from the whole dose curve; as a rule, active = well fitted inhibition curve with a large enough effect; inconclusive = small, poorly fitted or top-dose-only effect; inactive = flat fitted curve, though single readings scatter.
Labels: 1 (active), 0 (inactive)

[[record]]
compound = "O=C1NC(Cc2ccccc2)C(=O)N2CCCC12 (centres undefined)"
label = 0

[[record]]
compound = "CC(=O)O[C@H]1CC[C@H](C)[C@@]2(C)[C@H](OC(C)=O)c3c(C)coc3C(=O)[C@H]12"
label = 0

[[record]]
compound = "CC(=O)C12OC(C)(C)OC1CC1C3CCC4=CC(=O)C=CC4(C)C3(F)C(O)CC12C (centres undefined)"
label = 0

[[record]]
compound = "CCNC(=O)Nc1ccc(-c2nc3c(c(N4CCOC[C@@H]4C)n2)CCN(c2ncccn2)C3)cc1"
label = 1

[[record]]
compound = "C[C@H]1[C@H](O)O[C@@H]2O[C@@]3(C)CC[C@H]4[C@H](C)CC[C@@H]1[C@@]24OO3"
label = 1

[[record]]
compound = "C=C1C(OC2OCC(O)C(O)C2O)CC2C(C)(C)C(O)CCC2(C)C1CC/C(C)=C\\CO (centres undefined)"
label = 0

[[record]]
compound = "C[C@H]1Oc2cc(cnc2N)-c2c(nn(C)c2C#N)CN(C)C(=O)c2ccc(F)cc21"
label = 0

[[record]]
compound = "C=CC1C(OC2OC(CO)C(O)C(O)C2O)OC=C(C(=O)OC)C1CC1CC(=O)CC(CCc2ccc(O)cc2)O1 (centres undefined)"
label = 0

[[record]]
compound = "CC1(C)C2CC(OC3OC(COC4OCC(O)(CO)C4O)C(O)C(O)C3O)C1(C)CC2O (centres undefined)"
label = 0


* * *

- Tested on: HEK293
- protocol.text: Cytotoxic Profiling of Annotated Libraries Using Quantitative High-Throughput Screening (AID 1296008); note: % is set by controls: 0 for no effect and ±100 for the full control effect; nearly all actives have a fitted effect of over 60% in size
- run.parameters: Five cell lines viability, CellTiter-Glo ATP luminescence, 48-72 h; active compounds read low
Inconclusive results are not listed. Where a SMILES comes first, the peptide text is derived from it. [ ]: non-standard residue; d: D form. ξ: configuration not given here. ξLac(3-iPr) = CC(C)CC(O)C(=O)O; NMeV = CN[CH](C(=O)O)C(C)C; βAla = NCCC(=O)O
assay.metric: max response (%)

[[record]]
compound = "CC1(C)C=CN2C(=O)C3=CCCN3C(=O)[C@@H]2C[C@@]12Nc1ccccc1C2=O"
assay_metric = "max response"
units = "%"
observed_measurement = -9.52

[[record]]
compound = "Oc1ccc2nc(CN3CCC(Cc4ccccc4F)CC3)[nH]c2c1"
assay_metric = "max response"
units = "%"
observed_measurement = -10.9

[[record]]
compound = "C[C@@H]1C[C@@H]([C@@H](O)C(C)(C)O)O[C@H]2C[C@@]3(C)C(=C12)C[C@H](O)[C@H]1[C@@]2(C)CCC(=O)C(C)(C)C2CC[C@@]13C (some centres not stated)"
assay_metric = "max response"
units = "%"
observed_measurement = 3.48

[[record]]
compound = "O=C1C=CC(O)(/C=C/C(=O)OC[C@H]2O[C@@H](Oc3ccc(O)cc3)[C@H](O)[C@@H](O)[C@@H]2O)C=C1"
assay_metric = "max response"
units = "%"
observed_measurement = -4.12

[[record]]
compound = "CCCC1(c2ccccc2)NC(=O)N(CC(=O)N(C)Cc2c(F)cccc2Cl)C1=O (configuration not stated)"
assay_metric = "max response"
units = "%"
observed_measurement = -6.56

[[record]]
compound = "COc1c2c(c(C)c3c1C(=O)OC3)OC1(C)CC(O)C34OC(OC)(CC(OC(C)=O)C3(C)C1C2)OC4(C)C (configuration not stated)"
assay_metric = "max response"
units = "%"
observed_measurement = -22.1

[[record]]
compound = "c1ccc(-c2ncc(CN3CCN(c4ncccn4)CC3)[nH]2)cc1"
assay_metric = "max response"
units = "%"
observed_measurement = 0.625

[[record]]
compound = "COc1ccc2cc(C(C)C(=O)Oc3ccc(C(N)=S)cc3)ccc2c1 (configuration not stated)"
assay_metric = "max response"
units = "%"
observed_measurement = -0.854

[[record]]
compound = "Cc1ncc(CCCN(C)C)cc1Nc1ncc2c(n1)-c1ccc(C(F)(F)F)cc1NC(=S)C2"
assay_metric = "max response"
units = "%"
observed_measurement = -92.5

[[record]]
compound = "CC(CO)C1CCC2(C)CC3C(CO)CC(O)C3C(C)(O)C/C=C/12 (configuration not stated)"
assay_metric = "max response"
units = "%"
observed_measurement = -10.5

[[record]]
compound = "COc1c2c(c(C)c3c1C(=O)OC3)O[C@@]1(C)CCC3(C(C)(C)O)OC(=O)CC[C@]3(C)[C@H]1C2 (some centres not stated)"
assay_metric = "max response"
units = "%"
observed_measurement = -0.697

[[record]]
compound = "[N-]=[N+]=N[C@]1(CO)O[C@@H](n2ccc(=O)[nH]c2=O)[C@@H](O)[C@@H]1O"
assay_metric = "max response"
units = "%"
observed_measurement = -4.49

[[record]]
compound = "CC(=O)CC1CCC(C(C)C(=O)OCC(O)CO)O1 (configuration not stated)"
assay_metric = "max response"
units = "%"
observed_measurement = -3.6

[[record]]
compound = "CC(=O)OC1/C(C)=C/C(=O)C(OC(C)=O)C(C)(C)/C=C/C(C)C(=O)C2(OC(C)=O)CC(C)C(OC(=O)c3ccccc3)C12 (configuration not stated)"
assay_metric = "max response"
units = "%"
observed_measurement = -22.9

[[record]]
compound = "O=C(Nc1nc2ccccc2n1CCc1ccccc1)c1ccccc1"
assay_metric = "max response"
units = "%"
observed_measurement = -110

[[record]]
compound = "CCCn1c(=O)c2[nH]c(-c3ccc(OCC(=O)O)cc3)nc2n(CCC)c1=O"
assay_metric = "max response"
units = "%"
observed_measurement = -2.68

[[record]]
compound = "CC1(C)CC[C@]2(C(=O)O[C@@H]3O[C@H](CO)[C@@H](O)[C@H](O)[C@H]3O)CC[C@]3(C)C(=CCC4[C@@]5(C)CC[C@H](O[C@@H]6O[C@H](C(=O)O)[C@@H](O)[C@H](O[C@@H]7O[C@H](CO)[C@H](O)[C@H](O)[C@H]7O)[C@H]6O)C(C)(C)C5CC[C@]43C)C2C1 (some centres not stated)"
assay_metric = "max response"
units = "%"
observed_measurement = 1.5

[[record]]
compound = "O=C(O)c1ccc(CN2CCC(CN[C@@H]3C[C@H]3c3ccccc3)CC2)cc1"
assay_metric = "max response"
units = "%"
observed_measurement = -15.7

[[record]]
compound = "COc1cc2c(c(OC)c1CC=C(C)C)C[C@H](c1ccc(O)cc1O)CO2"
assay_metric = "max response"
units = "%"
observed_measurement = 0.883

[[record]]
compound = "C=C[C@H]1[C@H](O[C@@H]2O[C@H](CO)[C@@H](O)[C@H](O)[C@H]2O)OC=C(C(=O)OC)[C@H]1CCOC(=O)c1cc(O)c(O)c(O)c1"
assay_metric = "max response"
units = "%"
observed_measurement = 0.889

[[record]]
compound = "CC(=O)OC1C[C@]2(C)C(O)CC(C)=C[C@H](OC(=O)c3ccc(O)cc3)C2[C@]1(O)C(C)C (some centres not stated)"
assay_metric = "max response"
units = "%"
observed_measurement = -3.03

[[record]]
compound = "C=C(C(=O)O)C1CCC2(C)CCC(O)C(=C)C2C1 (configuration not stated)"
assay_metric = "max response"
units = "%"
observed_measurement = -0.847

[[record]]
compound = "C/C=C/c1ccc2c(c1)[C@@H](C)[C@H](c1ccc(O)cc1)O2"
assay_metric = "max response"
units = "%"
observed_measurement = 1.71

[[record]]
compound = "CC(/C=C/C1=CC2=CC(=O)C(C)(O)C(O)C2=CO1)=C\\C(C)CCO (configuration not stated)"
assay_metric = "max response"
units = "%"
observed_measurement = -3.02

[[record]]
compound = "Cc1ccc(-c2ccc3c(ccc4sc5c(c43)NC[C@@H](C)NC5=O)n2)cn1"
assay_metric = "max response"
units = "%"
observed_measurement = -21.3

[[record]]
compound = "O=C(CC1C(=O)Nc2ccccc21)OC[C@H]1O[C@@H](OCCc2ccc(O)cc2)[C@H](O)[C@@H](O)[C@@H]1O (some centres not stated)"
assay_metric = "max response"
units = "%"
observed_measurement = 1.16

[[record]]
compound = "O=C(Nc1ccc(S(=O)(=O)Nc2ccccc2Cl)c(Cl)c1)c1ccccn1"
assay_metric = "max response"
units = "%"
observed_measurement = -10.8

[[record]]
compound = "COc1cc(C2Oc3c(OC)cc(CCCO)cc3C2CO)ccc1O[C@H]1O[C@H](C)[C@@H](O)[C@H](O)[C@@H]1O (some centres not stated)"
assay_metric = "max response"
units = "%"
observed_measurement = -0.663

[[record]]
compound = "COc1cc2c(cc1O)[C@H](c1ccc(O[C@@H]3O[C@H](CO)[C@@H](O)[C@H](O)[C@H]3O)c(OC)c1)[C@@H](CO)[C@](O)(CO)C2"
assay_metric = "max response"
units = "%"
observed_measurement = 2.27

[[record]]
compound = "CC(C)CC1OC(=O)C2CCCN2C(=O)CCNC(=O)C(Cc2ccccc2)NC(=O)C(C(C)C)N(C)C(=O)C(C(C)C)N(C)C1=O (configuration not stated) (cyclo([ξLac(3-iPr)][NMeV][NMeV]F[βAla]P); configuration not given here)"
assay_metric = "max response"
units = "%"
observed_measurement = 4

[[record]]
compound = "COc1cc(/C=C/C(=O)O[C@H]2[C@H](O)[C@@H](CO)O[C@@]2(CO)O[C@H]2O[C@H](CO)[C@@H](O)[C@H](O)[C@H]2O)ccc1O"
assay_metric = "max response"
units = "%"
observed_measurement = 0.588

[[record]]
compound = "Cc1cc(NC(=O)Nc2ccc(F)c(F)c2)n(-c2ccccc2)n1"
assay_metric = "max response"
units = "%"
observed_measurement = -2.17

